Would you kindly list viability, T/C for each of these molecules?
System: 292921-168-R-J2-PDC KRAS tumor spheroid viability;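 also: drug exposure lasted seven days after spheroids formed for three days; percent of DMSO vehicle control viability which is 100%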
Assay: Anticancer human tumor 292921-168-R-J2-PDC patient-derived pancreatic carcinoma cell line growth inhibition [KRAS2]
Conditions: second compound 0.1 µM; first compound 10 µM; active compounds read low; spheroids with HUVEC and MSC
One number for each entry, in %.

Some molecules with recorded viability, T/C:
molecule: CCNC(=O)CC1N=C(c2ccc(Cl)cc2)c2cc(OC)ccc2-n2c(C)nnc21 (stereo not given) + CC1OCC2(CCN(c3cnc(Sc4ccnc(N)c4Cl)c(N)n3)CC2)C1N
observable: viability, T/C
experimental_result: 27.5
//
molecule: CC(C)NCC(C(=O)N1CCN(c2ncnc3c2C(C)CC3O)CC1)c1ccc(Cl)cc1 (stereo not given) + CNCc1ccccc1-c1csc(C(C)Nc2nc(C)nc3cc(OC)c(OC)cc23)c1
observable: viability, T/C
experimental_result: 42.5
//
molecule: O=C(c1cc(Cc2n[nH]c(=O)c3ccccc23)ccc1F)N1CCN(C(=O)C2CC2)CC1 + C=CC(=O)N1CCN(c2nc(OCC3CCCN3C)nc3c2CCN(c2cccc4cccc(C)c24)C3)CC1CC#N
observable: viability, T/C
experimental_result: 36.3
//
molecule: CC1OCC2(CCN(c3cnc(Sc4ccnc(N)c4Cl)c(N)n3)CC2)C1N (stereo not given) + C=CC(=O)N1CCN(c2nc(=O)n(-c3c(C)ccnc3C(C)C)c3nc(-c4c(O)cccc4F)c(F)cc23)C(C)C1
observable: viability, T/C
experimental_result: 33.4
//
molecule: COC(=O)c1ccc2c(C(=Nc3ccc(N(C)C(=O)CN4CCN(C)CC4)cc3)c3ccccc3)c(O)[nH]c2c1 + C=CC(=O)N1CCN(c2nc(OCC3CCCN3C)nc3c2CCN(c2cccc4cccc(C)c24)C3)CC1CC#N
observable: viability, T/C
experimental_result: 0.11

State the recorded viability, T/C for every item in the following list.
1. CC1OCC2(CCN(c3cnc(Sc4ccnc(N)c4Cl)c(N)n3)CC2)C1N (stereo not given) + COc1cc2nc(C)nc(NC(C)c3cc(N)cc(C(F)(F)F)c3)c2cc1OC1CCOC1
2. O=C(c1cc(Cc2n[nH]c(=O)c3ccccc23)ccc1F)N1CCN(C(=O)C2CC2)CC1 + CC1OCC2(CCN(c3cnc(Sc4ccnc(N)c4Cl)c(N)n3)CC2)C1N
3. COc1cc(Nc2ncc3c(n2)-c2ccc(Cl)cc2C(c2c(F)cccc2OC)=NC3)ccc1C(=O)O + COc1cc2nc(C)nc(NC(C)c3cc(N)cc(C(F)(F)F)c3)c2cc1OC1CCOC1
4. COc1cc(Nc2ncc3c(n2)-c2ccc(Cl)cc2C(c2c(F)cccc2OC)=NC3)ccc1C(=O)O + C=CC(=O)N1CCN(c2nc(=O)n(-c3c(C)ccnc3C(C)C)c3nc(-c4c(O)cccc4F)c(F)cc23)C(C)C1
5. COC(=O)c1ccc2c(C(=Nc3ccc(N(C)C(=O)CN4CCN(C)CC4)cc3)c3ccccc3)c(O)[nH]c2c1 + C=CC(=O)N1CCN(c2nc(=O)n(-c3c(C)ccnc3C(C)C)c3nc(-c4c(O)cccc4F)c(F)cc23)C(C)C1

[26.9, 40.5, 16.9, 26.4, 0.29]
